Measured values drawn from patent US20210347873A1 for this set.

Tested target: T1, biotinylated hBLyS-ECD (human, UniProt Q9Y275 134-285, biotinylated with Biotin-X-X-NHS (molar ratio 7:1); sites not stated)
T1 construct: also called biotinylated immunogen; biotinylated hBLvS-ECD
T1 sequence (Q9Y275 134-285): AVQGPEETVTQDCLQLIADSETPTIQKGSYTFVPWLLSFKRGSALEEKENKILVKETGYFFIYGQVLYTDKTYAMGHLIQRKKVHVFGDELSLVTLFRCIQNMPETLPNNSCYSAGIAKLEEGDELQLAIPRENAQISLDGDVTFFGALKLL
Method description: ELISA on captured biotinylated hBLyS-ECD; antibody 0.107 nM
Entries and their OD450 nm
Quick note: give the figure in OD450 nm, leave out the unit.

Here's what some known entries look like.
c111D10D6G3 (antibody, V domains shown) VH: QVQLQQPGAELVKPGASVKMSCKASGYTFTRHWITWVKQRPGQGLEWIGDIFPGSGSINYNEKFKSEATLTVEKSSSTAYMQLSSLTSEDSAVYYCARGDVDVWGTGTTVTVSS VL: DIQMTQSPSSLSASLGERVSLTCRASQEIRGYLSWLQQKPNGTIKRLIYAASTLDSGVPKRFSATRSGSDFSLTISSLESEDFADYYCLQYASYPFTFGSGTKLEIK :: 2.12
c67A2E1D10 (antibody, V domains shown) VH: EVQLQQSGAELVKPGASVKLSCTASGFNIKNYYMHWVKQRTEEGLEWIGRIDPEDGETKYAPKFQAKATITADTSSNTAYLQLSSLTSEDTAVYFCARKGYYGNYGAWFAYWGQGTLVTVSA VL: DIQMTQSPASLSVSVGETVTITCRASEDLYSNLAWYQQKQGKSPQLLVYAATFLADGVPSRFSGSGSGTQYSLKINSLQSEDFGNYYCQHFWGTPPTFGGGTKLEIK :: 1.58

# input binder: c8E7D9C7F5 (antibody, V domains shown, also called chimeric antibody c8E7D9C7F5) VH: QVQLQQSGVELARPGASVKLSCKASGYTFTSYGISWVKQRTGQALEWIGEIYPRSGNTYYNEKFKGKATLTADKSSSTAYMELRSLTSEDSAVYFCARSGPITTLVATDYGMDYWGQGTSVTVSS VL: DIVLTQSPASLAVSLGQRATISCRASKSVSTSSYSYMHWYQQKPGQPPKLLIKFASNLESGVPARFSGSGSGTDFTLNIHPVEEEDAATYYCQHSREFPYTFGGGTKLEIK ; wanted: its OD450 nm 1.7

# input binder: c97A3C2H4 (antibody, V domains shown, also called chimeric antibody c97A3C2H4) VH: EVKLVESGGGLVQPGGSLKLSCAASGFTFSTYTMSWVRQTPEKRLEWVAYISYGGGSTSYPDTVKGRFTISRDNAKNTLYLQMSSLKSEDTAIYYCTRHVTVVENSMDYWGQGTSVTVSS VL: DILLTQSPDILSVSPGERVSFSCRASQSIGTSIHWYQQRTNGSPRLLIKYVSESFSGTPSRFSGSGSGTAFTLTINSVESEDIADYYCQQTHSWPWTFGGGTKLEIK ; wanted: its OD450 nm 2.35
